studySystem: Dihydrofolate reductase (Neisseria gonorrhoeae)
Sequence (P04174 whole entry): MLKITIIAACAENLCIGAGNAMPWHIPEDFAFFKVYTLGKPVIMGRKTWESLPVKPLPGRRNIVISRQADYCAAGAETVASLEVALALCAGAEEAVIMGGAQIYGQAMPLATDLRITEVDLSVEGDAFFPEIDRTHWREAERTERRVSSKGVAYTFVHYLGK
This section presents molecules with their documented IC50 values.
measuredQuantity: IC50 (nM)

                                    molecule  measuredquantity  unitannotation  observed
 0      CC(C)c1cc(Cc2cnc(N)nc2N)cc(C(C)C)c1N              IC50              nM       137
 1            CCc1cc(Cc2cnc(N)nc2N)cc(CC)c1O              IC50              nM       120
 2      CC(C)c1cc(Cc2cnc(N)nc2N)cc(C(C)C)c1O              IC50              nM        29
 3             COc1c(I)cc(Cc2cnc(N)nc2N)cc1I              IC50              nM        28
 4          Nc1ncc(Cc2cc(I)c(O)c(I)c2)c(N)n1              IC50              nM        28
 5         CCCc1cc(Cc2cnc(N)nc2N)cc(CCC)c1OC              IC50              nM        60
 6  CCc1cc(Cc2cnc(N)nc2N)cc(C(C)CC)c1N (stereo not given)              IC50              nM        75
 7  CCCCCCCCCCCCOc1c(CC)cc(Cc2cnc(N)nc2N)cc1CC              IC50              nM      3500
 8  COc1c(C(C)(C)C)cc(Cc2cnc(N)nc2N)cc1C(C)(C)C              IC50              nM        58
 9               COc1ccc(Cc2cnc(N)nc2N)cc1OC              IC50              nM       530
10  CC(C)(C)c1cc(Cc2cnc(N)nc2N)cc(C(C)(C)C)c1O              IC50              nM        61
11           CCCc1cc(Cc2cnc(N)nc2N)cc(CC)c1O              IC50              nM        49
12          CCOc1c(CC)cc(Cc2cnc(N)nc2N)cc1CC              IC50              nM       356
13       Cc1cc(Cc2cnc(N)nc2N)cc(C(C)(C)C)c1O              IC50              nM       259
14  CCc1cc(Cc2cnc(N)nc2N)cc(CC)c1OCCCOc1ccccc1              IC50              nM        64
15  COc1cc(Cc2cnc(N)nc2N)cc(OC)c1O [4-HYDROXYTRIMETHOPRIM]              IC50              nM       330
16             CCc1cc(Cc2cnc(N)nc2N)cc(C)c1O              IC50              nM       350
17              Cc1cc(Cc2cnc(N)nc2N)cc(C)c1O              IC50              nM       526
18  CCCCC(CC)COc1c(CC)cc(Cc2cnc(N)nc2N)cc1CC (stereo not given)              IC50              nM       319
19              Cc1cc(Cc2cnc(N)nc2N)cc(C)c1N              IC50              nM       485
